- EXPERIMENTAL_DETAILS: Agilent ZORBAX 300 SB-C18, 150 × 1 mm, 3.5 µm; A: water + 0.01% heptafluorobutyric acid; B: acetonitrile + 0.01% heptafluorobutyric acid; gradient (min/%B) 0/0 100/90
- SETTINGS: stereoisomer not certain
OUTCOME_MEASURE: LC retention time (min)

COMPOUND	RECORDED_RESULT
Cc1cnc(C)cn1	7.49
CC(C)(C)NCCNC(C)(C)C	7.46
CNc1ccccc1	7.27
CCN(CC)CC(=O)Nc1c(C)ccc(O)c1C	8.16
O=C(O)c1ccc2[nH]c3c(c2c1)CCCC3	11.6
COc1cccc(OC)c1OCc1nc2ccccc2nc1C	13.3
Cc1ccc(-c2nn[nH]n2)n1C	9.09
CCCN1CCC(=O)CC1	6.66
NC1=NC(=Nc2ccc(N3CCOCC3)cc2)c2ccccc21	9.27
COc1ccc(NC(C)c2ccccc2)cc1 (stereo not given)	10.7

A = Cc1ccc(NC(=S)NC2CC(C)(C)NC(C)(C)C2)c(C)c1
B = COc1cccc(C2C3=C(CC(C)(C)CC3=O)OC3=C2C(=O)CC(C)(C)C3)c1OC
Incoming: Kindly compare A with B and tell me which has the lower LC retention time figure. Which one? Tell me its label.
Outgoing: A
(A: 9.61 min, B: 16.5 min)

a = CCN(CC)c1ccc(C(=O)NCC(C)C)cc1
b = C=CC[n+]1ccc2ccccc2c1
Incoming: // compare: a vs b , metric LC retention time, want the smaller Refer to your chosen entry by its label in the reply.
Outgoing: b
